Measured EC50 values are reported for all entries that follow.
Test system: SARS-CoV-2 QHN001/α
Test: microbe, parasite or virus in culture
Type: cell-based
Details: read-out: EC50 α, Average
recorded.endpoint: EC50 (nM)

structure.notation	unit.of.measure	endpoint.value
CC(C)(C)[C@H](NC(=O)C(F)(F)F)C(=O)N1C[C@H]2[C@@H]([C@H]1C(=S)N[C@@H](C[C@@H]1CCNC1=O)C(=O)c1nc3c(F)cccc3s1)C2(C)C	nM	300
CC(C)(C)[C@H](NC(=O)C(F)(F)F)C(=O)N1C[C@H]2[C@@H]([C@H]1C(=O)N[C@@H](C[C@@H]1CCNC1=O)C(=O)c1nc3c(F)cccc3s1)C2(C)C	nM	42
